- System: HT29 colon
- method-summary: NCI-60 one-dose screen, 48 h
- assay-context: 10 µM unless noted
Compounds without any hit were thinned out: in the full panel of roughly 83,000, 20% have a hit. Activity calls are given as the source filed them. The calls were made as follows: active = growth percent below 10; inactive = the rest.
A correct response names exactly one class from active, inactive

Completed entries (count: 5):
> print(dat)
                        structure.as.smiles  class.name
1  COc1ccc(-c2cnc(NC(=O)CCCCCCNC(=O)C(O)(O)C(F)(F)F)s2)cc1      active
2  CC(C)[C@H]1c2[nH]c3ccccc3c2C[C@H]2C(=O)N(CCCCCCC(=O)NO)CC(=O)N12    inactive
3  CNC(=O)c1cc(N2CCc3cc(NC(=O)Nc4ccc(N5CCN(C)CC5)c(C(F)(F)F)c4)ccc32)ccn1    inactive
4  CCc1cc(OC(=O)N2CCN(CCC(C)(COC(C)(C)C)COC(C)(C)C)CC2)ccc1Nc1cc(-c2ccc(-n3cccn3)cc2)[nH]n1    inactive
5         Cc1csc(/N=C(N)/N=C(\N)c2cccnc2)n1    inactive

Q. Call for entry CCOC(=O)c1ccc(NC2=C(Cl)C(=O)c3nc(C)ccc3C2=O)cc1 :
A. inactive

Q. COc1cc(NC(=O)Nc2cccc(-c3cc(=O)c4c(OC)c(OC)c(OC)cc4o3)c2)cc(OC)c1OC ?
A. inactive

Q. CN1CCN(c2ccc(Nc3nc(NCCCNS(=O)(=O)c4ccc(F)cc4)c4sccc4n3)cc2)CC1 ?
A. inactive

Q. CCCCCc1ccc(S(=O)(=O)Nc2cc(-c3csc(N)n3)ccc2OC)cc1 ?
A. inactive
